Cited source for all entries: PubChem BioAssay (NCI)

System: SK-MEL-28 melanoma
Assay: NCI tumour cell line growth inhibition, 48 h
Assign TGI to each entry below.

Inquiry: Sample "O=C(Oc1ccc([N+](=O)[O-])cc1)N1CCN(Cc2cccc(Oc3ccccc3)c2)CC1" — what was its TGI?
Reply text: > 100 µM

Inquiry: I have this compound here, "Oc1cc(Cl)cc2cc(Br)cnc12" , and I need its recorded TGI.
Reply text: > 100 µM

Inquiry: Bench note: what TGI did "COC(=O)c1ccccc1NC(=O)C(=O)CC(=O)c1ccccc1NC1=CC(=O)C(=O)c2ccccc21" show?
Reply text: 29.4 µM

Inquiry: Look up TGI for this compound: CC(C)CCCC(C)[C@H]1CC[C@H]2[C@@H]3CC[C@H]4C[C@@H](CCC=C(c5cc(Cl)c(O)c(C(=O)OC(C)(C)C)c5)c5cc(Cl)c(O)c(C(=O)OC(C)(C)C)c5)CC[C@]4(C)[C@H]3CC[C@]12C (some centres undefined)
Reply text: > 50 µM

* * *

Test system: PC-3 prostate
Assay: NCI tumour cell line growth inhibition, 48 h
recorded_endpoint: TGI

Inquiry: Form field - read-out: TGI; system: PC-3 prostate; submitted item: "Nc1ccn([C@H]2C[C@@H](O)[C@@H](CO)S2)c(=O)n1"
Reply text: > 100 µM

Inquiry: Lab request: please report TGI under test system PC-3 prostate for CC1(C)OCC2OC3([C@H](O)CCO)OC(C)(C)OC3C2O1 (stereo not given in full)
Reply text: > 100 µM

Inquiry: Param readout = TGI; param system = PC-3 prostate; param query = "CC(C)(C)OC(=O)NCCCCCCCCn1c2c(c3ccccc3c1=O)C(=O)c1ccccc1-2" ; response: value
Reply text: > 50 µM

Inquiry: Form entry - test system: PC-3 prostate; read-out: TGI; molecule: "Cc1cc(=O)oc2cc(OC(=O)Nc3ccc(Cl)c(Cl)c3)ccc12"
Reply text: 68.2 µM

Inquiry: Look up TGI with PC-3 prostate for this molecule: "CN1CCN(c2ccc(-c3cnc4c(-c5csc6ccccc56)cnn4c3)cc2)CC1"
Reply text: > 15 µM

Inquiry: # get_value(readout= TGI, system= PC-3 prostate) for "C=CCN1C(=O)/C(=C/c2ccc(C)cc2)N=C1SC/C=C/C"
Reply text: > 100 µM

Inquiry: # query: TGI | item "OCCSCCCSCCO" | system: PC-3 prostate
Reply text: > 100 µM

Inquiry: What value of TGI on PC-3 prostate does "Cc1cc2c(cc1O)CC[C@@H]1[C@@H]2CC[C@]2(C)[C@@H](O)CC[C@@H]12" have?
Reply text: 37.7 µM

Inquiry: Give recorded TGI with PC-3 prostate for the following molecule: "COC1=CC(=O)C(O)=C(C[C@@]2(C)[C@@H]3CCC[C@H](COC(=O)CCCCCNC(=O)OC(C)(C)C)[C@@]3(C)CC[C@@H]2C)C1=O"
Reply text: > 10 µM

Inquiry: What is its TGI for PC-3 prostate? Entry: O=[N+]([O-])c1ccc(Cl)cc1C1ON=C(c2ccccc2)N1C12CC3CC(CC(C3)C1)C2 (stereo not given)
Reply text: > 100 µM

Inquiry: # get_value(readout= TGI, system= PC-3 prostate) for "Cn1c(N2CCCC2)c(C=O)c(=O)n(C)c1=O"
Reply text: > 100 µM

Inquiry: Recorded TGI for "O=C1CN(c2ccc(Cl)cc2)C(=O)CN1CCN1CC(=O)N(c2ccc(Cl)cc2)CC1=O" with PC-3 prostate, please?
Reply text: > 100 µM

Inquiry: What reported TGI corresponds to CC1=C(C(=O)OCCO[N+](=O)[O-])C(c2ccccc2C(F)(F)F)C(C(=O)OC(C)C)=C(C)N1 (stereo not given) on PC-3 prostate?
Reply text: 34.5 µM

Inquiry: Identify the measured TGI of "O=C1c2ccccc2S(=O)(=O)N1CSC(=S)N1CCCC1" for PC-3 prostate.
Reply text: > 100 µM

Inquiry: Form: Entry = "Cc1cccc(-c2cc(=O)c3ccc(C)nc3[nH]2)c1" | System = PC-3 prostate | TGI = ____
Reply text: > 82.9 µM

Inquiry: Record lookup: for PC-3 prostate, what TGI belongs to C/C=C(\C)C(=O)O[C@@H]1C(O)[C@H]2OC(COC(=O)CCC(=O)CCCCCC[C@H](CCCCC)O[C@@H]3OC(C)[C@H](OC(C)=O)C(O)[C@H]3O2)[C@H]1OC(=O)/C=C/c1ccccc1 (stereo not given in full) ?
Reply text: 16.7 µM

Inquiry: # value lookup — system PC-3 prostate, readout TGI, item O=C(CCCCCCCCC(=O)NN1C(=O)/C(=C\c2ccc(O)c(O)c2)SC1c1c(O)ccc2ccccc12)NN1C(=O)C(=Cc2ccc(O)c(O)c2)SC1c1c(O)ccc2ccccc12 (stereo not given)
Reply text: > 100 µM

Inquiry: Write down the reported TGI of "CCCCn1c2c(c3ccccc3c1=O)C(=O)c1ccccc1-2" , test system: PC-3 prostate.
Reply text: > 100 µM

Inquiry: Lab note: need TGI for "O=c1cccc(C#Cc2ccccc2)o1" on PC-3 prostate, anyone have it?
Reply text: > 40.4 µM

Inquiry: // lookup TGI | system=PC-3 prostate | key= "Oc1cc(Cl)cc2cc(Br)cnc12"
Reply text: > 100 µM
